- System: 695427-040-R-J1-PDC complex spheroids, viability percent T/C;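 further: spheroids exposed to compounds for seven days before readout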
- Experiment: Anticancer human tumor 695427-040-R-J1-PDC patient-derived colon adenocarcinoma cell line growth inhibition [GQUAD]
- Condition parameters: second compound 10 µM; first compound 0.000999 µM; hits give low values
// classify: if (viability, T/C < 70%) Satisfied else Not satisfied

Task: viability, T/C under 70%? Item: CC[C@@]1(O)C(=O)OCc2c1cc1n(c2=O)Cc2cc3c(CN(C)C)c(O)ccc3nc2-1 + Cc1cnc(CNC(=O)c2c(=O)c3ccc(N4CCCN(C)CC4)nc3n3c2sc2ccccc23)cn1
Result: Satisfied

Task: viability, T/C under 70%? Item: CC[C@@]1(O)C(=O)OCc2c1cc1n(c2=O)Cc2cc3c(CN(C)C)c(O)ccc3nc2-1 + CN(C)c1ccc(Nc2c3ccc(NC(=O)CCN4CCCC4)cc3nc3cc(NC(=O)CCN4CCCC4)ccc23)cc1
Result: Not satisfied

Task: viability, T/C under 70%? Item: Cc1[nH]c2ccccc2c1CCNCc1ccc(/C=C/C(=O)NO)cc1 + Cc1[nH]c2ccc(F)cc2c1-c1nc2c3cccnc3c3ncccc3c2[nH]1
Result: Not satisfied

Task: viability, T/C under 70%? Item: Cc1[nH]c2ccccc2c1CCNCc1ccc(/C=C/C(=O)NO)cc1 + CN(C)c1ccc(Nc2c3ccc(NC(=O)CCN4CCCC4)cc3nc3cc(NC(=O)CCN4CCCC4)ccc23)cc1
Result: Not satisfied
